experiment: yeast display, Sf9 membrane polyspecificity reagent, FACS + sequencing; frameworks hold sequencing errors
measuredEndpoint: polyreactivity (PSR sort gate)

QVQLVESGGGLVQAGGSLRLSCAASGSIFYLYTMGWYRQAPWKERELVAGISNGDRTYYADSVKGRFTISRDNAKNTVYLQMNSLKPEDTAVYYCAVTVYWYSRAAEYDYWGQGTQVTVSS ... low polyreactivity
QVQLVESGGGLVQAGGRLRLSCAASGFIFAWYAMGWYRQAPGKEMELVAAITWSAGSTYYADSVKGRFTISRDNAKNTVFLQMNSLKPEVTAVYYCAADAWYYSIYRGGDFWGQGTQVTVSS ... low polyreactivity

---

experiment: yeast display, Sf9 membrane polyspecificity reagent, FACS + sequencing; frameworks hold sequencing errors
measuredEndpoint: polyreactivity (PSR sort gate)

QVQLVESGGGLVQAGGSLRLSCAASGRIFVIYAMGWYRQAPGTERELVAAITARGSNTYYADSVKGRFTISRDNAKNTVYLQMNSLKPEDTAVYYCNAEARSYRYPYNYWGQGTQVTVSS ... high polyreactivity
QVQLVESGGGLVQAGGSLRLTCAASGRTFAWYAMGWYRQAPGKERELVAAISSGGSTYYADSVKGRFTISRDNAKNTVYLQMDSLKPEDTAVYYCAAEWHYIYAYDYWGQGTQVTVSS ... low polyreactivity
QVQLVDSGGGLVQAGGSLRLSFAASGSTFHTYAMGWYRQAPGTERELVATNTWDGGRTYYADSVKGRFTISRDIAKYTVYLQMNSLKPEDTAVYYCASVYWSIEMDYWGQGSQVTVSS ... low polyreactivity
QVQLVESGGGLVQAGGSLRLSCAASGRTFLYYAMGWYRQAPGKERELVARITLDGGSTNYADSVKGRFTISRDNAKNTVYLQMNSLKPEDTAVYYCAAQRGGPFPRVVDLYDYWGQGTQVTVSS ... low polyreactivity
QVQLVESGGGLVQAGGSLRLSCAASGFIFSYYAMGRYRQAPGKEREMVAAITWSGSSTYYADSVKGRFTISRDNAKNTVYLQMYSLIPEDNAVYSCAASSGGFRHYFYTYNYWGQGTQVTVSS ... high polyreactivity
QVQLVESGGGLVPAGGSLRLSCAASGRTFIKYAMGWYRQAPGKERELVAAISRSAGSTYYADSVKGRFTISRDNAKNTVYLQMNSLKPEDTAVYYCNAVTSSYLRFDYWGQGTQVSVSS ... high polyreactivity
QVLLQESGGRLVQAGGSLRLGCEPSGTISPAYYMGRYHQAPGKEREFVAAITYGTNTYYADSVKGRCTISRDIAKNTVYLQMNSLKPEDSAVYYCSATAGYNGAHDYCGQGTQVTVSS ... low polyreactivity
QVQLVESGGGLVQAGGSLRLSCAASGSTFDFNAMGWYRQAPGKERELVAAITGSDGNTYYADSVKGRFTISRDNAKNTVYLQMNSLKPEDTAVYYCAADFSWWSKYVVLYDYWGQGTQVTVSS ... low polyreactivity
QVQLVESGGGLVQAGGSLRLSCAASGSISGLYAMGWYRQATGKERELVAAITFRDGTTSYADSVKGRFTISRDNAKNTVYLQMNSLKPEDTAVYYCAAVDRDSNSSVPTLDHWGQGTQVTVSS ... low polyreactivity
QVQLLESGGGLVQAGGSLRLSCAASGSIIRQNGMVWYRPAPGKEREFVAAITRTGGSTYYADSVKGRFTISRDNAKNTVYLHMNSLKPEDTAGYYCAARGGYRYTRYDYWGQGTQVTVSS ... high polyreactivity

Report polyreactivity (PSR sort gate) for every entry below.
1. QVQLVESGGGLVQAGGSLRLSCAASGFIFYEYAMGWYRQSPGKERELVAGISWSGDSTYYADSVKGRFTISRDNAKNTVYLQMNRLKPEDTAVYYCAADPYYQGYDYWGQGTQVTVSS
2. QFQLVESGGGLVQAGGSLRLSCAASGRIFGIYAMGWDRQAPGKESELVATITDSDDSTYYADSVKGRFTISRDNAKNTVYLQMNSLKPEDTAVYYCATAFSYGGGAYDYWGQGTQVTVSS
3. QVQLVESGGGLVQAGGSLRLSCAASGFIFSYYTMGWYRQAPGKERELVAAISRRGGSTYYADSVKGRFTISRDNAKNTVYLQMNSLKPEDTAVYYCAAPRDWDAGDYWGQGTQVTVSS

Ans:
low polyreactivity
low polyreactivity
high polyreactivity
